Origin of measurements: paper PMC7936271

Catalogue of t1/2, min HLM readings, one per entry.
Test: Metabolic stability assay in human liver microsomes
Assay type: in vitro ADME
Conditions: human liver microsomes, 2.0 μM, 37 °C; data >60 min are an extrapolated estimate
Experimental: 2d) Metabolic stability assay in liver microsomes. […] The reactions are terminated by adding equivalent volume of ice-cold CH3OH and vortexed. temperature was ma i ntained at 40 °C. (acetonitrile containing 0.1% formic acid). […]
Field: numeric (h). Do not append units.

Below, 3 compounds whose answers are already recorded.
# Compound, Experimental endpoint, Measurement
records = [
    ("CC(=O)Nc1cc(NC(=O)c2ccc3c(c2)c(-c2ccc(N)cc2C)nn3C)ccc1C", "t1/2, min HLM", 6.17),
    ("CC(=O)Nc1cccc(NC(=O)c2ccc3c(c2)c(-c2ccc(N)cc2C)nn3C)c1", "t1/2, min HLM", 3),
    ("CC(=O)Nc1cc(NC(=O)c2ccc3c(c2)c(-c2ccc(N)nc2)nn3C)ccc1C", "t1/2, min HLM", 8.17),
]

Please find the next compound below.
[ask] What value of t1/2, min HLM has been recorded for this entry: `CNC(=O)c1ccc(C(=O)Nc2cc(NC(=O)c3ccc4c(c3)c(-c3cnc(N)cc3C)nn4C)ccc2C)cc1`
[reply] 3.67

====

Target: BRD2-BD2
Experimental endpoint: pKd
Here pKd is given on a logarithmic scale as minus log10 of the concentration in mol/L.

[ask] What value of pKd has been recorded for this entry: CC(=O)Nc1cc(NC(=O)c2ccc3c(c2)c(-c2ccc(N)cc2C)nn3C)ccc1C [Compound 20]
[reply] 8.11

====

Biological target: BRD3-BD2 (Homo sapiens, UniProt Q15059)
Construct: purchased Eurofins DiscoverX Corp
Sequence (Q15059 306-415 limits assumed): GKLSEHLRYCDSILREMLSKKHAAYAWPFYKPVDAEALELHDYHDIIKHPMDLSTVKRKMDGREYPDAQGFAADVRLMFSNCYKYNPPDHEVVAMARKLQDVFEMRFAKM
Assay: BROMOscan BromoKdELECT competition binding, BRD3-BD2
Details: BromoKdELECT dose-response; read-out: Binding Constants (Kd), nM BRD3-BD2
Experimental endpoint: Kd (nM)
Field: numeric (nM). Do not append units.

[ask] What value of Kd has been recorded for this entry: CC(=O)Nc1cc(NC(=O)c2ccc3c(c2)c(-c2ccc(N)cc2C)nn3C)ccc1C [Compound 20]
[reply] 2

====

Target: BRD4-BD2
Experimental endpoint: pIC50
Here pIC50 is given on a logarithmic scale as minus log10 of the concentration in mol/L.

# Compound, pIC50
data = [
    ("CNC(=O)c1ccc(C(=O)Nc2cc(NC(=O)c3ccc4c(c3)c(-c3ccc(N)nc3)nn4C)ccc2C)cc1", 7.34),
    ("CC(=O)Nc1cccc(NC(=O)c2ccc3c(c2)c(-c2ccc(N)cc2C)nn3C)c1", 7.68),
    ("CC(=O)Nc1cc(NC(=O)c2ccc3c(c2)c(-c2ccc(N)cc2C)nn3C)ccc1C", 7.92),
    ("CNC(=O)c1ccc(C(=O)Nc2cc(NC(=O)c3ccc4c(c3)c(-c3cc5ccccc5n3C)nn4C)ccc2C)cc1", 7.51),
    ("CNC(=O)c1cc(NC(=O)c2ccc3c(c2)c(-c2ccc(N)cc2C)nn3C)ccc1C", 7.70),
    ("CNC(=O)c1ccc(C(=O)Nc2cc(NC(=O)c3ccc4c(c3)c(-c3cnc(N)cc3C)nn4C)ccc2C)cc1", 6.85),
]

Please find the next compound below.
[ask] What value of pIC50 has been recorded for this entry: `CC(=O)Nc1cc(NC(=O)c2ccc3c(c2)c(-c2ccc(N)nc2)nn3C)ccc1C`
[reply] 7.29

====

Catalogue of IC50 readings, one per entry.
Molecular target: BRD4-BD1 (Homo sapiens, UniProt O60885)
Construct: amino acid 44− 168; made in house; host or cells: E. coli NiCo21 (DE3)
Test: AlphaScreen competition assay with biotinylated JQ1, BRD4-BD1
Type: binding
Conditions: AlphaScreen, biotinylated JQ1 as ligand; NE: no effect at 20 µM
Field: numeric (nM). Do not append units.

[ask] What value of IC50 has been recorded for this entry: CC(=O)Nc1cc(NC(=O)c2ccc3c(c2)c(-c2ccc(N)cc2C)nn3C)ccc1C [Compound 20]
[reply] 10400

[ask] // repeat for CC(=O)Nc1cc(NC(=O)c2ccc3c(c2)c(-c2ccc(N)nc2)nn3C)ccc1C [Compound 17] and report
[reply] 25100

[ask] // repeat for CC(=O)Nc1cccc(NC(=O)c2ccc3c(c2)c(-c2ccc(N)cc2C)nn3C)c1 [Compound 21] and report
[reply] 14100

====

Molecular target: BRD4-BD2 (Homo sapiens, UniProt O60885)
Assay: BROMOscan BromoKdELECT competition binding, BRD4-BD2
Parameters: purchased Eurofins DiscoverX Corp
Details: BromoKdELECT dose-response; read-out: Binding Constants (Kd), nM BRD4-BD2
Experimental endpoint: Kd (nM)
Field: numeric (nM). Do not append units.

[ask] What value of Kd has been recorded for this entry: `CC(=O)Nc1cc(NC(=O)c2ccc3c(c2)c(-c2ccc(N)cc2C)nn3C)ccc1C`
[reply] 1.6

====

Biological target: BRD4-BD2 (Homo sapiens, UniProt O60885)
Assay: AlphaScreen competition assay with biotinylated JQ1, BRD4-BD2
Format: binding
Parameters: BD2, NP_055114.1 amino acid 333− 460; made in house; host or cells: E. coli NiCo21 (DE3)
Experimental endpoint: BRD4-BD2 vs. BRD4-BD1 (BRD4-BD2 selectivity)
Lab note: jot down the number only; don't add units.

Below, 2 compounds whose answers are already recorded.
# Compound, Tested system, Measurement
measured = [
    ("CC(=O)Nc1cc(NC(=O)c2ccc3c(c2)c(-c2ccc(N)cc2C)nn3C)ccc1C [Compound 20]", "BRD4-BD2 (Homo sapiens, UniProt O60885)", 860),
    ("CC(=O)Nc1cc(NC(=O)c2ccc3c(c2)c(-c2ccc(N)nc2)nn3C)ccc1C [Compound 17]", "BRD4-BD2 (Homo sapiens, UniProt O60885)", 490),
]

Please find the next compound below.
[ask] What value of BRD4-BD2 vs. BRD4-BD1 (BRD4-BD2 selectivity) has been recorded for this entry: CC(=O)Nc1cccc(NC(=O)c2ccc3c(c2)c(-c2ccc(N)cc2C)nn3C)c1 [Compound 21]
[reply] 670

====

Target: BRD4-BD2 (Homo sapiens)
Assay: AlphaScreen competition assay with biotinylated JQ1, BRD4-BD2
Format: binding
Parameters: BD2, NP_055114.1 amino acid 333− 460; made in house; host or cells: E. coli NiCo21 (DE3)
Experimental endpoint: IC50 (nM)
Field: numeric (nM). Do not append units.

Below, 2 compounds whose answers are already recorded.
# Compound, Tested system, Measurement
rows = [
    ("CNC(=O)c1ccc(C(=O)Nc2cc(NC(=O)c3ccc4c(c3)c(-c3cc5ccccc5n3C)nn4C)ccc2C)cc1", "BRD4-BD2 (Homo sapiens)", 31),
    ("CNC(=O)c1cc(NC(=O)c2ccc3c(c2)c(-c2ccc(N)cc2C)nn3C)ccc1C", "BRD4-BD2 (Homo sapiens)", 20),
]

Please find the next compound below.
[ask] What value of IC50 has been recorded for this entry: `CNC(=O)c1ccc(C(=O)Nc2cc(NC(=O)c3ccc4c(c3)c(-c3ccc(N)nc3)nn4C)ccc2C)cc1`
[reply] 46

====

Experiment: Metabolic stability assay in mouse liver microsomes
Format: in vitro ADME
Conditions: mouse liver microsomes, 2.0 μM, 37 °C; data >60 min are an extrapolated estimate
Procedure: 2d) Metabolic stability assay in liver microsomes. […] The reactions are terminated by adding equivalent volume of ice-cold CH3OH and vortexed. temperature was ma i ntained at 40 °C. (acetonitrile containing 0.1% formic acid). […]
Experimental endpoint: t1/2, min MLM
Numeric answer plus unit only.

[ask] What value of t1/2, min MLM has been recorded for this entry: `CNC(=O)c1ccc(C(=O)Nc2cc(NC(=O)c3ccc4c(c3)c(-c3cnc(N)cc3C)nn4C)ccc2C)cc1`
[reply] 2.5 h

[ask] // repeat for `CC(=O)Nc1cc(NC(=O)c2ccc3c(c2)c(-c2ccc(N)cc2C)nn3C)ccc1C` and report
[reply] 1.2 h

[ask] // repeat for `CC(=O)Nc1cccc(NC(=O)c2ccc3c(c2)c(-c2ccc(N)cc2C)nn3C)c1` and report
[reply] 0.15 h

[ask] // repeat for `CC(=O)Nc1cc(NC(=O)c2ccc3c(c2)c(-c2ccc(N)nc2)nn3C)ccc1C` and report
[reply] 3.33 h

====

Target: BRDT-BD2 (Homo sapiens, UniProt Q58F21)
Assay: AlphaScreen competition assay with biotinylated JQ1, BRDT-BD2
Assay type: binding
Parameters: BRDT-BD2, NP_001717.3 amino acid 269− 380; made in house; host or cells: E. coli NiCo21 (DE3)
Settings: AlphaScreen, biotinylated JQ1 as ligand
Catalogue of IC50 readings, one per entry.
Field: numeric (nM). Do not append units.

Below, 3 compounds whose answers are already recorded.
# Compound, Tested system, Experimental endpoint, Measurement
rows = [
    ("CC(=O)Nc1cc(NC(=O)c2ccc3c(c2)c(-c2ccc(N)cc2C)nn3C)ccc1C [Compound 20]", "BRDT-BD2 (Homo sapiens, UniProt Q58F21)", "IC50", 8),
    ("CC(=O)Nc1cccc(NC(=O)c2ccc3c(c2)c(-c2ccc(N)cc2C)nn3C)c1 [Compound 21]", "BRDT-BD2 (Homo sapiens, UniProt Q58F21)", "IC50", 14),
    ("CNC(=O)c1ccc(C(=O)Nc2cc(NC(=O)c3ccc4c(c3)c(-c3cnc(N)cc3C)nn4C)ccc2C)cc1 [Compound 15]", "BRDT-BD2 (Homo sapiens, UniProt Q58F21)", "IC50", 22),
]

[ask] What value of IC50 has been recorded for this entry: CC(=O)Nc1cc(NC(=O)c2ccc3c(c2)c(-c2ccc(N)nc2)nn3C)ccc1C [Compound 17]
[reply] 47
